Below, each of the sequences is paired with its reported Tm value.
Experiment: melting temperature; fluorescence melt of hairpins on a sequencing array, two-state fit, raised by 9.35 °C to match UV melts
Settings: sodium 0.088 M
Give just the number in °C; leave the unit off.

Consider the worked cases shown below.
>  <construct_sequence>
GCGTTCTTACGC ((((....))))

>  <value_units>
°C

>  <Tm>
52.8

$$$$
>  <construct_sequence>
CTTAGGAAACTAAG (((((....)))))

>  <value_units>
°C

>  <Tm>
33.4

$$$$
>  <construct_sequence>
GGGCTCGGAAACGAACCC (((.(((....))).)))

>  <value_units>
°C

>  <Tm>
51

$$$$
>  <construct_sequence>
GCGAGACATCGC ((((....))))

>  <value_units>
°C

>  <Tm>
55.1

$$$$

Given the sequence GTACCCGAAAGGGATAC ((((((....))).))) , what is its reported Tm? 47

Given the sequence GGCTTAGGAAACTGAGCC ((((.((....)).)))) , what is its reported Tm? 50.4

Given the sequence CAAGGGAAACCTTG (((((....))))) , what is its reported Tm? 43.9

Given the sequence GCCTACCGAAAGGTGGGC (((.(((....))).))) , what is its reported Tm? 69.1

Given the sequence GCAAAAGGAAACTTTTGC (((((((....))))))) , what is its reported Tm? 56.5

Given the sequence GATCTTACCAAAGATC ((((((....)))))) , what is its reported Tm? 44.5

Given the sequence GATCTTCGAGAAGATC ((((((....)))))) , what is its reported Tm? 50.8

Given the sequence GAAGCGCGAAAGCGTTTC (((.(((....))).))) , what is its reported Tm? 56

Given the sequence GATCTTCGACAAGATC ((((((....)))))) , what is its reported Tm? 38.6
